Where these numbers come from: patent US20230100838A1

- system: GDP-loaded K-Ras (1-169) C51S, C80L, C118S (Homo sapiens, UniProt P01116, C118S/C51S/C80L)
- Construct: GDP-loaded K-Ras (1-169) C51S, C80L, C118S
- measurement description: K-Ras WT (GDP) cross-linking assay (conjugate formation, TOF mass spectrometry)
- Format: binding
- assay conditions: Table 5; percent covalently modified K-Ras by MS; room temperature; typical compound conc. 2, 10, 25 μM, endpoints 1 and 24 h

molecule	WT x-linking (%)
COCC1(N=C=N[C@H]2C[C@H](Nc3nc(OC[C@@H]4CCCN4C)nc4c3CCN(c3cccc5cccc(C)c35)C4)C2)CC1 [Example 152]	+ (0 < x ≤ 20)
CO[C@@H]1CCCC[C@H]1N=C=NC1CCN(c2nc(OC[C@@H]3CCCN3C)nc3c2CCN(c2cccc4cccc(C)c24)C3)CC1 [Example 147]	+ (0 < x ≤ 20)
Cc1ccnc(C(C)C)c1-n1c(=O)nc(N2C[C@H](C)N(C(=O)[C@H]3CN3)C[C@H]2C)c2cc(F)c(-c3c(O)cccc3F)nc21 [Example 139]	0
Cc1cccc2cccc(N3CCc4c(nc(OC[C@@H]5CCCN5C)nc4N4CCC(N=C=NCCCn5ccnc5)CC4)C3)c12 [Example 88]	++ (20 < x ≤ 100)
Cc1ccc2[nH]ncc2c1N1CCc2c(nc(OC[C@@H]3CCCN3C)nc2N2CCN(C(=O)[C@H]3CN3)[C@@H](CC#N)C2)C1 [Example 110]	+ (0 < x ≤ 20)
CO[C@@H]1CCC[C@@H]1N=C=NC1CCN(c2nc(OC[C@@H]3CCCN3C)nc3c2CCN(c2cccc4cccc(C)c24)C3)CC1 (single isomer, unassigned) [Example 149]	+ (0 < x ≤ 20)
Cc1cccc2cccc(N3CCc4c(nc(OC[C@@H]5CCCN5C)nc4N4CCC(N=C=NCCCN(C)c5ccccn5)CC4)C3)c12 [Example 91]	+ (0 < x ≤ 20)
COCCN=C=N[C@H]1CCN(c2nc(OC[C@@H]3CCCN3C)nc3c2CCN(c2cccc4cccc(C)c24)C3)C1 [Example 74]	++ (20 < x ≤ 100)
Cc1cccc2cccc(N3CCc4c(nc(OC[C@@H]5CCCN5C)nc4N4CCN(C(=O)[C@@H]5CN5Cc5ccccc5)[C@@H](CC#N)C4)C3)c12 (stereo partly shown) [Example 97]	+ (0 < x ≤ 20)
COc1ccccc1CN=C=N[C@H]1CCN(c2nc(OC[C@@H]3CCCN3C)nc3c2CCN(c2cccc4cccc(C)c24)C3)C[C@@H]1CC#N [Example 103]	+ (0 < x ≤ 20)
CC(=O)N1C[C@H]1C(=O)N1CCN(c2nc(OC[C@@H]3CCCN3C)nc3c2CCN(c2cccc4cccc(C)c24)C3)C[C@@H]1CC#N [Example 99]	+ (0 < x ≤ 20)
O=C([C@@H]1CN1)N1CCN2c3ncnc4cc(-c5c(O)cccc5F)c(Cl)c(c34)OCC[C@@H]2C1 [Example 134]	+ (0 < x ≤ 20)
COCCN=C=N[C@H]1CC[C@H](N(C)c2nc(OC[C@@H]3CCCN3C)nc3c2CCN(c2cccc4cccc(C)c24)C3)CC1 [Example 78]	+ (0 < x ≤ 20)

---

- system: GDP-loaded K-Ras (1-169) G12D, C51S, C80L, C118S (Homo sapiens, UniProt P01116, C118S/C51S/C80L/G12D)
- Construct: GDP-loaded K-Ras (1-169) G12D, C51S, C80L, C118S
- measurement description: K-Ras G12D(GDP) cross-linking assay (conjugate formation, TOF mass spectrometry)
- Format: binding
- Parameters: key: 0: No observed x-linking; +: 0 < x ≤ 20; ++: 20 < x ≤ 40; +++: 40 < x ≤ 100
- assay conditions: Table 4; percent covalently modified K-Ras by MS; room temperature; typical compound conc. 2, 10, 25 μM, endpoints 1 and 24 h
- Description: Protocol: K-Ras G12D(GDP) Cross-Linking Assay […] GDP-loaded K-Ras (1-169) G12D, C51S, C80L, C118S and GDP-loaded K-Ras (1-169) C51S, C80L, C118S were adjusted to 50 μM in K-Ras assay buffer (12.5 mM HEPES, 75 mM NaCl and 1 mM MgCl2 at pH 7.4). […] At each time point, the reactions were analyzed immediately or quenched with 5 μL of a 5% formic acid solution and kept at 4° C. until analysis. […]

compound	G12D x-linking (%)
Cc1cccc2cccc(N3CCc4c(nc(OC[C@@H]5CCCN5C)nc4N4CCN(C5=NCCO5)[C@@H](CC#N)C4)C3)c12	0
CCCN=C=NCCCN(C)c1nc(OC[C@@H]2CCCN2C)nc2c1CCN(c1cccc3cccc(C)c13)C2	+++ (40 < x ≤ 100)
CN=C=NC1CCN(c2ncnc3c(F)c(-c4ccccc4F)c(Cl)cc23)CC1	+ (0 < x ≤ 20)
CC(=O)N1CC1C(=O)N(C)C1CCN(c2nc(OC[C@@H]3CCCN3C)nc3c2CCN(c2cccc4cccc(C)c24)C3)CC1 (stereo partly drawn)	+ (0 < x ≤ 20)
O=C(NCCCl)NC1CCN(c2ncnc3c(F)c(-c4ccccc4F)c(Cl)cc23)CC1	+ (0 < x ≤ 20)
CCCN=C=NCCN(C)c1nc(OC[C@@H]2CCCN2C)nc2c1CCN(c1cccc3cccc(C)c13)C2	+++ (40 < x ≤ 100)
Fc1ccccc1-c1c(Cl)cc2c(N3CCC(N=C=NCc4ccccc4)CC3)ncnc2c1F	+ (0 < x ≤ 20)
Cc1cccc2cccc(N3CCc4c(nc(OC[C@@H]5CCCN5C)nc4N4CCN(C(=O)NCCCl)[C@@H](CC#N)C4)C3)c12	+ (0 < x ≤ 20)
Fc1ccccc1-c1c(Cl)cc2c(N3CCC(N=C=Nc4ccc(Cl)cc4)CC3)ncnc2c1F	0
Cc1cccc2cccc(N3CCc4c(nc(OC[C@@H]5CCCN5C)nc4NCCN(C)C(=O)NCCCl)C3)c12	0
O=C(C1CN1)N1CCN(c2ncnc3c(F)c(-c4ccccc4F)c(Cl)cc23)CC1 (stereo not drawn)	+ (0 < x ≤ 20)
COc1ccc(CN=C=NC2CCN(c3nc(OC[C@@H]4CCCN4C)nc4c3CCN(c3cccc5cccc(C)c35)C4)CC2)cc1	+ (0 < x ≤ 20)
CC(C)N=C=NC1CCN(c2ncnc3c(F)c(-c4ccccc4F)c(Cl)cc23)CC1	+ (0 < x ≤ 20)
CN=C=NCCN(C)c1ncnc2c(F)c(-c3ccccc3F)c(Cl)cc12	+ (0 < x ≤ 20)
Cc1cccc2cccc(N3CCc4c(nc(OC[C@@H]5CCCN5C)nc4N4CCC(N(C)C(=O)C5CN5S(C)(=O)=O)CC4)C3)c12 (stereo partly drawn)	+ (0 < x ≤ 20)
Cc1cccc2cccc(N3CCc4c(nc(OC[C@@H]5CCCN5C)nc4NCCNC4=NCCO4)C3)c12	+ (0 < x ≤ 20)
COc1ccc(CN=C=NCCCN(C)c2nc(=O)n(-c3c(C)ccnc3C(C)C)c3nc(-c4ccccc4F)c(F)cc23)cc1	+ (0 < x ≤ 20)
Cc1cccc2cccc(N3CCc4c(nc(OC[C@@H]5CCCN5C)nc4N(C)CCCN=C=NCc4ccc(Cl)cc4)C3)c12	+ (0 < x ≤ 20)
CC(=O)N1CC1C(=O)N1CCN(c2nc(OC[C@@H]3CCCN3C)nc3c2CCN(c2cccc4cccc(C)c24)C3)CC1 (stereo partly drawn)	+ (0 < x ≤ 20)
OB(O)C1CCN(c2ncnc3c(F)c(-c4ccccc4F)c(Cl)cc23)CC1	0
Cc1cccc2cccc(N3CCc4c(nc(OC[C@@H]5CCCN5C)nc4N4CCC(N=C=NC(C)C)CC4)C3)c12	++ (20 < x ≤ 40)
Cc1cccc2cccc(N3CCc4c(nc(OC[C@@H]5CCCN5C)nc4N(C)CCN=C=NCc4ccc(Cl)cc4)C3)c12	++ (20 < x ≤ 40)
COc1ccc(N=C=NC2CCN(c3ncnc4c(F)c(-c5ccccc5F)c(Cl)cc34)CC2)cc1	0
Fc1ccccc1-c1c(Cl)cc2c(N3CCC(N=C=Nc4ccccc4)CC3)ncnc2c1F	+ (0 < x ≤ 20)
COCCN=C=NC1CCN(c2nc(=O)n(-c3c(C)ccnc3C(C)C)c3nc(-c4ccccc4F)c(F)cc23)CC1	+ (0 < x ≤ 20)
COCCCN=C=NC1CCN(c2nc(OC[C@@H]3CCCN3C)nc3c2CCN(c2cccc4cccc(C)c24)C3)CC1	+++ (40 < x ≤ 100)
Cc1cccc2cccc(N3CCc4c(nc(OC[C@@H]5CCCN5C)nc4N(C)CCN=C=NCc4ccccc4)C3)c12	++ (20 < x ≤ 40)
Cc1cccc2cccc(N3CCc4c(nc(OC[C@@H]5CCCN5C)nc4NCCN(C)C4=NCCO4)C3)c12	0
Cc1cccc2cccc(N3CCc4c(nc(OC[C@@H]5CCCN5C)nc4N(C)CCCN=C=NCc4ccccc4)C3)c12	+++ (40 < x ≤ 100)
Fc1ccccc1-c1c(Cl)cc2c(N3CCC(NC4=NCCO4)CC3)ncnc2c1F	+ (0 < x ≤ 20)
